assay: Chronic antiphlogistic action: cotton pellet test (formation of granulation tissue) in rats; details: rat, in vivo, po, 5 mg/kg/day
result_type: mortality at 168 h (%)
Note: unit % is implicit; provide only the numeric part.

Prompt line: Determine from records and report mortality at 168 h for COc1ccc2c(c1)c(CC(=O)O)c(C)n2C(=O)c1ccc(Cl)cc1 [Compound 2, indomethacin, reference compound]
Response line: 25

* * *

Measured Therapeutic quotient LD50/ED50, listed per entry for reference.
tested on: carrageenin edema of the hind paw of rats; experiment: Acute antiphlogistic action: carrageenin edema of the hind paw of rats after single oral administration; conditions: carrageenin edema; LD50 7 days oral, rats
Response field accepts a number only; no unit should be typed.

Known results for compounds:
O=C(O)c1cscc1Nc1c(Cl)cccc1Cl = 2.1
COc1ccc2c(c1)c(CC(=O)O)c(C)n2C(=O)c1ccc(Cl)cc1 [Compound 2, indomethacin, reference compound] = 1.2

Please look at the following compound next.
Prompt line: Report measured Therapeutic quotient LD50/ED50; entry is O=C(O)Cc1cscc1Nc1c(Cl)cccc1Cl
Response line: 6.9
